Attribution: ChEMBL document CHEMBL4342410

Assay: Cmax in nude rat xenografted with human Calu6 cells harboring KRAS Q61K mutant at 150 mg/kg, po administered daily for 18 days starting from day 13 post tumor implantation and measured on day 31
Type: ADME, organism-based
Parameters: dose 150 mg/kg, route oral
Conditions: in vivo
measurement name: Cmax (µM)
Report as a plain number; the unit µM is understood.

Give the measured Cmax of Cc1ccc(NC(=O)c2ccnc(C(F)(F)F)c2)cc1-c1cc(OCCO)nc(N2CCOCC2)c1 .
12.7

* * *

Assay: Apparent permeability across apical to basolateral side in human Caco2 cells at pH 7.4 by LC/MS/MS analysis
Assay type: ADME, cell-based
Conditions: Caco-2, pH 7.4
The reader will find reported Papp A→B values listed item by item below.
Number in ×10⁻⁶ cm/s, nothing else.

Some compounds with recorded Papp A→B:
Reported Papp A→B, compound Cc1ncc(NC(=O)c2ccnc(C(C)(F)F)c2)cc1-c1cc(NCCO)nc(N2CCOCC2)c1 : ____
3

What value of Papp A→B has been recorded for this entry: Cc1ncc(NC(=O)c2cccc(C(F)(F)F)c2)cc1-c1c[nH]c(=O)c(N2CCOCC2)c1
0.3

Could you tell me which Papp A→B is on file for Cc1ccc(NC(=O)c2ccnc(C(F)(F)F)c2)cc1-c1cc(NCCO)nc(N2CCOCC2)c1 ?
5

Next:
Quick check: Papp A→B of Cc1ccc(NC(=O)c2cccc(C(F)(F)F)c2)cc1-c1cc(N2CCOCC2)nc(NCCO)n1 ?
8
